# measurement-protocol: The drug is tested on Bacteroides vulgatus strain: ATCC8482 for biotransformation. The drug concentrations were measured before and after a 12-h incubation by liquid-chromatography-coupled mass spectrometry (LC–MS)
# experimental-parameters: phocaeicola vulgatus, 2 µM

- compound: "CN1[C@@H]2CC[C@H]1C[C@@H](OC(=O)C(CO)c1ccccc1)C2 (some centres not stated)"
  Bacterial Biotransformation: "Compound NOT metabolized"
- compound: "CNC(=C[N+](=O)[O-])NCCSCc1ccc(CN(C)C)o1"
  Bacterial Biotransformation: "Compound metabolized"
- compound: "CCC(C)n1ncn(-c2ccc(N3CCN(c4ccc(OCC5COC(Cn6cncn6)(c6ccc(Cl)cc6Cl)O5)cc4)CC3)cc2)c1=O (configuration not stated)"
  Bacterial Biotransformation: "Compound NOT metabolized"
- compound: "CCCCCCOC(=O)/N=C(/N)c1ccc(NCc2nc3cc(C(=O)N(CCC(=O)OCC)c4ccccn4)ccc3n2C)cc1.CS(=O)(=O)O [DABIGATRAN ETEXILATE MESYLATE]"
  Bacterial Biotransformation: "Compound NOT metabolized"
- compound: "N#Cc1ccc2[nH]cc(CCCCN3CCN(c4ccc5oc(C(N)=O)cc5c4)CC3)c2c1"
  Bacterial Biotransformation: "Compound metabolized"
- compound: "CCCC(C)(COC(N)=O)COC(=O)NC(C)C (configuration not stated)"
  Bacterial Biotransformation: "Compound metabolized"
- compound: "CC(=O)OCC(=O)[C@@]1(OC(C)=O)[C@@H](C)C[C@H]2[C@@H]3C[C@H](F)C4=CC(=O)C=C[C@]4(C)[C@@]3(F)[C@@H](O)C[C@@]21C [DIFLORASONE DIACETATE]"
  Bacterial Biotransformation: "Compound metabolized"
